This collection of values is drawn from the supplement of paper PMC6755084.

B1: F1*; the commonest letter at each place (parent)
chain: GAGACCGCAACTGAAAAGTTGTTATCACTTGTCGTAAGACACTTTGGATGGGTTGAAGTTCTGCACGTAGAAGCAAAAGGC

variants of: B1; assay: fraction ligated after 30 min (ligated reads / total reads); higher = more ligase activity; settings: with F1*sub RNA substrate (template-directed ligation), 42 °C

MUTATION_SPEC: T35G T49G
fraction ligated: 0.778

MUTATION_SPEC: T23G G38T
fraction ligated: 0.81

MUTATION_SPEC: G31C C33A
fraction ligated: 0.798

MUTATION_SPEC: T35G G47A
fraction ligated: 0.78

MUTATION_SPEC: G31A T44G
fraction ligated: 0.819

MUTATION_SPEC: C28G T49C
fraction ligated: 0.674

MUTATION_SPEC: G34T A36C
fraction ligated: 0.843

MUTATION_SPEC: T25G C40T
fraction ligated: 0.732

MUTATION_SPEC: G46C G50A
fraction ligated: 0.0524

MUTATION_SPEC: C42G T43A
fraction ligated: 0.856

MUTATION_SPEC: T45C A56T
fraction ligated: 0.473

MUTATION_SPEC: C33A T35A
fraction ligated: 0.879

MUTATION_SPEC: A39T T44C
fraction ligated: 0.821

MUTATION_SPEC: A24T T25A
fraction ligated: 0.735

MUTATION_SPEC: T30C T32G C33G G38C A39C A41G
fraction ligated: 0.831

MUTATION_SPEC: T23A T32G
fraction ligated: 0.829

MUTATION_SPEC: C40T G47C
fraction ligated: 0.163

MUTATION_SPEC: C42T A57G
fraction ligated: 0.812

MUTATION_SPEC: G31C C42A
fraction ligated: 0.82

MUTATION_SPEC: T29C G31A
fraction ligated: 0.796

MUTATION_SPEC: A27T A36T
fraction ligated: 0.798

MUTATION_SPEC: T29G T30A
fraction ligated: 0.823

MUTATION_SPEC: T30C A56G
fraction ligated: 0.764

MUTATION_SPEC: G38T C40T
fraction ligated: 0.805

MUTATION_SPEC: G55T A56G A57C
fraction ligated: 0.0609

MUTATION_SPEC: C33A A39C
fraction ligated: 0.792

MUTATION_SPEC: G46A T49A
fraction ligated: 0.501

MUTATION_SPEC: C26A T35G
fraction ligated: 0.794
